PROTOCOL DETAILS: mitochondrial toxicity glu/gal assay
Assay type: cell-based
CONDITION CONTEXT: human, galactose, 300 µM; read-out: cell viability (ATP), % of control
QUANTITY KIND: viability at 300 µM (%)

COMPOUND STRUCTURE	QUANTITY KIND	OBS VALUE
Cc1[nH]c(C(=O)Nc2nc3c(N4CCOCC4)cc(C(=O)O)cc3s2)c(Cl)c1Cl	viability at 300 µM	98

---

System: 100 A. baumannii strains (50 MDR, 50 non-MDR)
PROTOCOL DETAILS: MIC broth microdilution at IHMA Europe, panel of 100 strains
Type: cell-based
CONDITION CONTEXT: Acinetobacter baumannii, A. baumannii IHMA 2020360, Croatia 2019, MDR; read-out: MIC

COMPOUND	MIC
C[C@@H](O)[C@H]1C(=O)N2C(C(=O)O)=C(S[C@@H]3CN[C@H](C(=O)N(C)C)C3)[C@H](C)[C@H]12 [Meropenem, meropenem]	> 16 µg/mL
C[C@@H](O)[C@H]1C(=O)N2C(C(=O)O)=C(SCCNC=N)C[C@H]12 [Imipenem, imipenem]	> 16 µg/mL
O=C(O)c1cn(C2CC2)c2cc(N3CCNCC3)c(F)cc2c1=O [ciprofloxacin]	> 16 µg/mL

---

The molecules listed here are annotated with their MIC.
System: E. coli ATCC 25922
PROTOCOL DETAILS: MIC broth microdilution (CLSI)
Format: cell-based
CONDITION CONTEXT: Escherichia coli, ATCC25922; read-out: MIC

MOLECULE	MIC
Cc1[nH]c(C(=O)Nc2nc3c(N4CCOC4=O)cc(C(=O)O)cc3s2)c(Cl)c1Cl	> 64 µg/mL
Cc1[nH]c(C(=O)Nc2nc3c(N4CC[C@H](N)C4)cc(C(=O)O)cc3s2)c(Cl)c1Cl.Cl	> 32 µg/mL
Cc1[nH]c(C(=O)Nc2nc3c(N4CCOCC4)cc(C(=O)O)cc3s2)cc1F [16b]	> 64 µg/mL

---

Each entry below lists one item and its recorded MIC value.
Tested on: 100 A. baumannii strains (50 MDR, 50 non-MDR)
PROTOCOL DETAILS: MIC broth microdilution at IHMA Europe, panel of 100 strains
Format: cell-based
CONDITION CONTEXT: Acinetobacter baumannii, A. baumannii IHMA 2261047, Belgium 2020, MDR; read-out: MIC
QUANTITY KIND: MIC

COMPOUND	QUANTITY KIND	OBS VALUE
O=C(O)c1cn(C2CC2)c2cc(N3CCNCC3)c(F)cc2c1=O [ciprofloxacin]	MIC	> 16 µg/mL
C[C@@H](O)[C@H]1C(=O)N2C(C(=O)O)=C(S[C@@H]3CN[C@H](C(=O)N(C)C)C3)[C@H](C)[C@H]12 [Meropenem, meropenem]	MIC	> 16 µg/mL
C[C@@H](O)[C@H]1C(=O)N2C(C(=O)O)=C(SCCNC=N)C[C@H]12 [Imipenem, imipenem]	MIC	> 16 µg/mL

---

The following compounds each carry a recorded MIC for K. pneumoniae ATCC 13883.

COMPOUND	MIC
Cc1[nH]c(C(=O)Nc2nc3c(N4CCOCC4)cc(C(=O)O)cc3s2)cc1F [16b]	> 64 µg/mL
Cc1[nH]c(C(=O)Nc2nc3c(N4CC[C@H](N(C)C)C4)cc(C(=O)O)cc3s2)c(Cl)c1Cl.Cl.N	> 64 µg/mL
Cc1[nH]c(C(=O)Nc2nc3c(N4CCOCC4)cc(C(=O)O)cc3s2)cc1C#N [16c]	> 64 µg/mL
